# Assayed System: CETP (Homo sapiens, UniProt P11597)
# Sequence (P11597 18-493): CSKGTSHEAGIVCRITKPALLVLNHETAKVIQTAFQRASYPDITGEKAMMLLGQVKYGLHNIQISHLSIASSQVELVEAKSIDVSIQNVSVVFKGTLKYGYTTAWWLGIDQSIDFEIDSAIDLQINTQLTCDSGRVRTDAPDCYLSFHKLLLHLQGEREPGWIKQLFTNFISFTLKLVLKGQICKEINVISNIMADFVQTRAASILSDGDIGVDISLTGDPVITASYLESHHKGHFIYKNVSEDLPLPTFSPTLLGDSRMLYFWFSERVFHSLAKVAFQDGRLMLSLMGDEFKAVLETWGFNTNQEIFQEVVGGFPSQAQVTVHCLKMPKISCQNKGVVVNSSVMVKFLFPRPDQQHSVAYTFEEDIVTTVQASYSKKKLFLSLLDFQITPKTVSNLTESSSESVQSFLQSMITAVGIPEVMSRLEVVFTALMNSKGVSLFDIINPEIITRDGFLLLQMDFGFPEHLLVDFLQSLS
# Assay Method Text: Inhibitory activity against CETP in human plasma (Roar CETP activity kit, fluorescence)
# Setup Conditions: plasma from healthy men diluted 1:10 in assay buffer, 37° C., 3 hrs, fluorescence 465/535 nm; read-out: IC50, Inhibition of CETP Activity in Human Plasma
# Protocol: A CETP activity kit (#RB-CETP) was purchased from Roar […], Inc. A donor and an acceptor (each, 4 ul), a 10× assay buffer (177 ul), and each of dilutions of test compounds in dimethylsulfoxide (DMSO, Sigma-Aldrich) (0.01 nM˜10000 nM) were added to each well of black round-bottom 96-well plates (Corning #3792). […] After removal of the sealing film, fluorescence was read on Spectra Max Gemini EM (Molecular devices) with an excitation wavelength of 465 nm and an emission wavelength of 535 nm. […]
pIC50: −log10 of the molar value.
Here, each record is paired with measured pIC50 data.
Value Type: pIC50

* CCN(c1ncc(C(F)(F)F)cc1CN1C(=O)O[C@H](c2cc(C(F)(F)F)cc(C(F)(F)F)c2)[C@@H]1C)C1CCSCC1 | 6.97
* Cc1noc(C)c1-c1cnc(N(C)C[C@H]2CC[C@H](CC(=O)O)CC2)c(CN2C(=O)OC(c3cc(C(F)(F)F)cc(C(F)(F)F)c3)[C@@H]2C)n1 (stereo partly drawn) | 7.77
* CCN(C[C@H]1CC[C@H](CC(=O)O)CC1)c1ncc(-c2cccs2)nc1CN1C(=O)OC(c2cc(C(F)(F)F)cc(C(F)(F)F)c2)[C@@H]1C (stereo partly drawn) | 7.99
* CCN(C[C@H]1CC[C@H](CC(=O)O)CC1)c1ncc(C2CC2)nc1CN1C(=O)OC(c2cc(C(F)(F)F)cc(C(F)(F)F)c2)[C@@H]1C (stereo partly drawn) | 8.41
* CCN(c1ncc(N2CCCC2)cc1CN1C(=O)O[C@H](c2cc(C(F)(F)F)cc(C(F)(F)F)c2)[C@@H]1C)C1CCOCC1 | 8.62
* CCN(C[C@H]1CC[C@H](CC(=O)O)CC1)c1ncc(-c2sccc2OC)nc1CN1C(=O)OC(c2cc(C(F)(F)F)cc(C(F)(F)F)c2)[C@@H]1C (stereo partly drawn) | 8.42

Values from patent US9533977B2
